Test system: NCI-H1876 complex spheroid growth, % test/control
Experiment: Anticancer human tumor NCI-H1876 cell line growth inhibition [Asc];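 also: compound exposure lasted 7 days starting three days after seeding; 100% = DMSO vehicle control wells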
Conditions: second compound 3.16 µM; first compound 10 µM; hits give low values
From the text: Multicellular complex tumor spheroid response to apoptosis pathway targeting inhibitors Alrizomadlin, Pelcitoclax, and Dasminapant in combination with a variety of drugs and investigational agents in selected tumor cell lines […] Compounds. […] If the clinical Cmax for an agent had not been determined, the highest concentration tested was 10 microM. […]
recorded metric: viability, T/C

get_value(item= C=CC(=O)N1CCN(c2nc(=O)n(-c3c(C)ccnc3C(C)C)c3nc(-c4c(O)cccc4F)c(F)cc23)C(C)C1 (stereo unspecified) + Cc1c(S(C)(=O)=O)c(-c2cc(F)cc(N3CCN(c4ccc(NS(=O)(=O)c5ccc(NC(CCN6CCC(C(=O)OCCCP(=O)(O)O)CC6)CSc6ccccc6)c(S(=O)(=O)C(F)(F)F)c5)cc4)CC3)c2)c(-c2ccc(Cl)cc2)n1C(C)C , readout=viability, T/C) returns 96.7%

====

tested on: NCI-H1876 complex spheroid growth, % test/control; assay: Anticancer human tumor NCI-H1876 cell line growth inhibition [Asc]; conditions: second compound 0.0316 µM; first compound 0.0316 µM; hits give low values;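 also: compound exposure lasted 7 days starting three days after seeding; 100% = DMSO vehicle control wells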
recorded metric: viability, T/C (%)
Use % as the unit, but write only the number.

[[record]]
molecule = "C=CC(=O)N1CCN(c2nc(=O)n(-c3c(C)ccnc3C(C)C)c3nc(-c4c(O)cccc4F)c(F)cc23)C(C)C1 (stereo unspecified) + CNC(C)C(=O)NC1CN(S(=O)(=O)c2cccc(S(=O)(=O)N3CCC4CCC(C(=O)NC(c5ccccc5)c5ccccc5)N4C(=O)C(NC(=O)C(C)NC)C3)c2)CCC2CCC(C(=O)NC(c3ccccc3)c3ccccc3)N2C1=O"
result = 102


Entry CNC(C)C(=O)NC1CN(S(=O)(=O)c2cccc(S(=O)(=O)N3CCC4CCC(C(=O)NC(c5ccccc5)c5ccccc5)N4C(=O)C(NC(=O)C(C)NC)C3)c2)CCC2CCC(C(=O)NC(c3ccccc3)c3ccccc3)N2C1=O (stereo unspecified) + Cc1c(S(C)(=O)=O)c(-c2cc(F)cc(N3CCN(c4ccc(NS(=O)(=O)c5ccc(NC(CCN6CCC(C(=O)OCCCP(=O)(O)O)CC6)CSc6ccccc6)c(S(=O)(=O)C(F)(F)F)c5)cc4)CC3)c2)c(-c2ccc(Cl)cc2)n1C(C)C ; assay system NCI-H1876 complex spheroid growth, % test/control; viability, T/C recorded at 98

NCI-H1876 complex spheroid growth, % test/control data for C=C(F)C(=O)N1CCN(c2nc(OCC3CCCN3C)nc3c2CCN(c2cccc4cccc(Cl)c24)C3)CC1CC#N (stereo unspecified) + CNC(C)C(=O)NC1CN(S(=O)(=O)c2cccc(S(=O)(=O)N3CCC4CCC(C(=O)NC(c5ccccc5)c5ccccc5)N4C(=O)C(NC(=O)C(C)NC)C3)c2)CCC2CCC(C(=O)NC(c3ccccc3)c3ccccc3)N2C1=O ; its viability, T/C: 106

Field viability, T/C (system: NCI-H1876 complex spheroid growth, % test/control) for entry Cn1ncnc1[C@H]1c2n[nH]c(=O)c3cc(F)cc(c23)N[C@@H]1c1ccc(F)cc1 + CNC(C)C(=O)NC1CN(S(=O)(=O)c2cccc(S(=O)(=O)N3CCC4CCC(C(=O)NC(c5ccccc5)c5ccccc5)N4C(=O)C(NC(=O)C(C)NC)C3)c2)CCC2CCC(C(=O)NC(c3ccccc3)c3ccccc3)N2C1=O = 109

Test item C=C(F)C(=O)N1CCN(c2nc(OCC3CCCN3C)nc3c2CCN(c2cccc4cccc(Cl)c24)C3)CC1CC#N (stereo unspecified) + Cc1c(S(C)(=O)=O)c(-c2cc(F)cc(N3CCN(c4ccc(NS(=O)(=O)c5ccc(NC(CCN6CCC(C(=O)OCCCP(=O)(O)O)CC6)CSc6ccccc6)c(S(=O)(=O)C(F)(F)F)c5)cc4)CC3)c2)c(-c2ccc(Cl)cc2)n1C(C)C ; NCI-H1876 complex spheroid growth, % test/control; reported viability, T/C was 96.7

Sample CCN1CCN(Cc2ccc(Nc3ncc(F)c(-c4cc(F)c5nc(C)n(C(C)C)c5c4)n3)nc2)CC1 + Cc1c(S(C)(=O)=O)c(-c2cc(F)cc(N3CCN(c4ccc(NS(=O)(=O)c5ccc(NC(CCN6CCC(C(=O)OCCCP(=O)(O)O)CC6)CSc6ccccc6)c(S(=O)(=O)C(F)(F)F)c5)cc4)CC3)c2)c(-c2ccc(Cl)cc2)n1C(C)C , system: NCI-H1876 complex spheroid growth, % test/control. Its viability, T/C is 97.9

The reported measurements were obtained from PubChem BioAssay AID1963441.
